- Method: solvent given as SMILES
- Condition notes: in Cc1ccccc1
Measured endpoint: emission maximum
Could you kindly put the unit after your number?

Consider the following illustrative entries.
Compound | Reported result
Cc1c(C2=[N+]3C(=Cc4c(C)c5ccccc5n4[B-]3(F)F)c3ccccc32)[nH]c2ccccc12 | 656 nm
CCCCCCc1ccc(-n2c3[n+](c4c5ccccc5c5ccccc5c42)[B-](C)(C)c2cc(N(c4ccccc4)c4ccccc4)ccc2-3)cc1 | 428 nm
CN1c2ccccc2C(O)(c2ccccc2)c2cc([N+](=O)[O-])ccc21 (stereo unspecified) | 480.7 nm
O=c1oc2ccccc2cc1-c1nc2ccccc2o1 | 445 nm
COc1ccc(C2=C(c3ccc(C)cc3)C(c3ccccc3)=[N+]3C2=Nc2c(-c4ccc(OC)cc4)c(-c4ccc(C)cc4)c(-c4ccccc4)n2[B-]3(F)F)cc1 | 709 nm
CN(C)c1ccc(C2=Nc3sc4ccccc4[n+]3[B-](F)(F)O2)cc1 | 450 nm

Fill in reported emission maximum for this entry: "O=C1c2ccccc2C2=Cc3cccc[n+]3[B-](F)(F)N12"
459 nm

Fill in reported emission maximum for this entry: "N#Cc1cc(N2c3ccccc3Oc3ccccc32)cc(N2c3ccccc3Oc3ccccc32)c1"
520 nm

Fill in reported emission maximum for this entry: "CCN(CC)c1ccc2cc(/C=C/C3=C4CC/C(=C\c5cc6ccc(N(CC)CC)cc6oc5=O)C4=[O+][B-](F)(F)O3)c(=O)oc2c1"
658 nm

Fill in reported emission maximum for this entry: "Cc1cc(-c2nc(-c3ccccc3)nc(-c3ccccc3)n2)ccc1N1c2ccccc2[Si](c2ccccc2)(c2ccccc2)c2ccccc21"
459 nm

Fill in reported emission maximum for this entry: "CCCCN1c2ccccc2Sc2cc(/C=C/c3nc4nc5ccccc5nc4s3)ccc21"
621 nm

Fill in reported emission maximum for this entry: "CCN(CC)c1ccc2cc(/C=C(\C#N)c3nc4ccccc4s3)c(=O)oc2c1"
567 nm

Fill in reported emission maximum for this entry: "BrCCCCCCCCCCCCOc1cc2ccc3cccc4ccc(c1)c2c34"
384 nm

Fill in reported emission maximum for this entry: "COc1nc(Nc2ccc3c4c(cccc24)C(=O)c2ccccc2-3)nc(OC)n1"
521.92 nm

Fill in reported emission maximum for this entry: "COC(=O)/C(C#N)=c1/cc/c(=c2/cc/c(=C(\C#N)C(=O)OC)s2)s1"
601 nm

----------
- Method: solvent given as SMILES
- Condition notes: in CC1CCCCC1
Measured endpoint: emission maximum (nm)
Numbers only; they are read as nm.

Consider the following illustrative entries.
Compound | Measured endpoint | Reported result
C(=C\c1c2ccccc2cc2ccccc12)/c1cnc2ccccc2c1 | emission maximum | 488
CC(C)(C)c1ccc2oc(-c3ccc(-c4nc5cc(C(C)(C)C)ccc5o4)s3)nc2c1 | emission maximum | 426
C(=C\c1c2ccccc2cc2ccccc12)/c1ccc2ccccc2n1 | emission maximum | 492
CN(C)c1ccc(/C=C/c2nc3c4ccccc4c4ccccc4c3[nH]2)cc1 | emission maximum | 430

We now examine a further compound.
Fill in reported emission maximum for this entry: COC(=O)C([NH3+])Cc1ccc2oc(-c3ccncc3)nc2c1 (stereo not given)
356.11

----------
Listed below: emission maximum values for each entry.
- Method: solvent given as SMILES
- Condition notes: in CCCCCO
Numbers only; they are read as nm.

Consider the following illustrative entries.
Mol | Measured endpoint | Unit name | Reported result
COc1cc(/C=C/c2cc[n+](Cc3ccc(Br)cc3)cc2)ccc1O | emission maximum | nm | 554
CCc1ccc(/C=C/c2ccc(-c3nnc(-c4ccc(-c5cc6ccccc6s5)cc4)o3)cc2)cc1 | emission maximum | nm | 421
Cc1ccccc1/C(C#N)=C/c1ccc(N(C)C)cc1 | emission maximum | nm | 495

We now examine a further compound.
Fill in reported emission maximum for this entry: "Cc1cc(C2(c3cc(C)c(O)c(Br)c3)OS(=O)(=O)c3ccccc32)cc(Br)c1O"
485

----------
- Method: solvent given as SMILES
- Condition notes: in C1CCOC1
Listed below: emission maximum values for each entry.
Numbers only; they are read as nm.

Consider the following illustrative entries.
Mol | emission maximum (nm)
c1ccc(-c2nc(-c3ccccc3)nc(-c3ccc(-n4c5ccccc5c5c6c(ccc54)C4(c5ccccc5-c5ccccc54)c4ccccc4-6)cc3)n2)cc1 | 488.19
CN(C)c1ccc(C2=[N+]3C(=Nc4c(-c5ccc(O)cc5)cc(-c5ccc(N(C)C)cc5)n4[B-]3(F)F)C(c3ccc(O)cc3)=C2)cc1 | 815

Fill in reported emission maximum for this entry: "Cc1ccc(C)n1-c1cccc(C#N)c1"
481

Fill in reported emission maximum for this entry: "Fc1ccc(-c2cc3ccc4cc(-c5ccc(F)cc5)cc5ccc(c2)c3c45)cc1"
411.8

Fill in reported emission maximum for this entry: "COc1ccc2n1[B-](F)(F)[N+]1=C(c3ccccc3)C=CC1=C2c1ccc(C)cc1"
555

Fill in reported emission maximum for this entry: "O=C(c1ccc(C(=C(c2ccc(C(=O)c3ccc(-n4c5ccccc5c5ccccc54)cc3)cc2)c2ccc(C(=O)c3ccc(-n4c5ccccc5c5ccccc54)cc3)cc2)c2ccccc2)cc1)c1ccc(-n2c3ccccc3c3ccccc32)cc1"
503

Fill in reported emission maximum for this entry: "C(=C\c1nc(/C=C/c2ccc(N(c3ccccc3)c3ccccc3)cc2)cc(/C=C/c2ccc(N(c3ccccc3)c3ccccc3)cc2)n1)/c1ccccc1"
520

----------
Listed below: emission maximum values for each entry.
- Method: solvent given as SMILES
- Condition notes: in CCO
Numbers only; they are read as nm.

Consider the following illustrative entries.
Mol | emission maximum, nm
CN(C)CCN(Cc1c2ccccc2c(CN(CCN(C)C)c2ccc([N+](=O)[O-])cc2[N+](=O)[O-])c2ccccc12)c1ccc([N+](=O)[O-])cc1[N+](=O)[O-] | 388
CC1(C)CC(=O)c2c(F)c(F)cc(F)c2N1 | 499
C[Si]1(C)C2=CC(=[N+]3CCC3)C=C(F)C2=Nc2c(F)cc(N3CCC3)cc21 | 719

Fill in reported emission maximum for this entry: "O=C1C2=C(O[B-](F)(F)[n+]3c2ccc2ccccc23)c2cccc3c(N4CCOCC4)ccc1c23"
584

Fill in reported emission maximum for this entry: "Cc1cc(-c2nnc(-c3c(C(C)C)cc(C(C)C)cc3C(C)C)o2)ccc1-n1c2ccccc2c2ccccc21"
440

Fill in reported emission maximum for this entry: "CCN(CC)c1ccc2cc(/C=C(\C#N)c3nc4ccccc4s3)c(=O)oc2c1"
594

----------
- Method: solvent given as SMILES
- Condition notes: in CS(C)=O
In this scheme, each record receives a class according to its emission maximum; the ranges are class A = under 500 nm, class B = from 500 nm up to 600 nm, class C = 600 nm and over

Mol | Cat
O=C(O)COc1cccc(-c2c3nc(cc4ccc([nH]4)c(-c4cccc(OCC(=O)O)c4)c4nc(cc5ccc2[nH]5)C=C4)C=C3)c1 | class C
O=c1oc2ccccc2cc1-c1nc2ccccc2o1 | class A

Which of the defined bands does the recorded emission maximum of "CC(C)(C)c1ccc2c(c1)c1cc(C(C)(C)C)ccc1n2-c1ccc2oc3nc4oc5ccc(C(F)(F)F)cc5c4cc3c2c1" sit within?
class B

Which of the defined bands does the recorded emission maximum of "COc1cc(/C=C/c2cc[n+](Cc3ccc(Br)cc3)cc2)ccc1O" sit within?
class B

Which of the defined bands does the recorded emission maximum of "N#Cc1cc2ccccc2oc1=N" sit within?
class A

----------
- Method: solvent given as SMILES
- Condition notes: in CCCCO
Measured endpoint: emission maximum (nm)
Numbers only; they are read as nm.

Consider the following illustrative entries.
Compound | Reported result
O=C1c2ccc3c4ccc5c6c(ccc(c7ccc(c2c37)C(=O)N1c1ccncc1)c64)C(=O)N(c1ccncc1)C5=O | 570
COc1cccc(-n2c(-c3ccccc3)nc(C)c2C)c1 | 370
OCC1O[C@@H](Cc2cc(O)cc(/C=C/c3ccc(O)c(O)c3)c2)[C@H](O)[C@@H](O)[C@@H]1O (stereo not given in full) | 385

Fill in reported emission maximum for this entry: "Cc1ccccc1/C(C#N)=C/c1ccc(N(C)C)cc1"
502

Fill in reported emission maximum for this entry: "CN(CCO)c1ccc(/C=C/C2=CC(=C(C#N)C#N)CC(C)(C)C2)cc1"
649

----------
Listed below: emission maximum values for each entry.
- Method: solvent given as SMILES
- Condition notes: in CCO
Numbers only; they are read as nm.

Consider the following illustrative entries.
Molecule | Unit name | emission maximum
OC1(c2ccc(-c3cccs3)s2)CCC(c2ccccc2)CC1 (stereo not given) | nm | 460
CNc1cccc2c1-c1ccccc1C2=O | nm | 686
CC(C)Nc1cc2oc3cc(NC(C)C)c(F)cc3c(=O)c2cc1F | nm | 422
COc1ccc(C#Cc2nc3ccccc3nc2-c2cn(C)c3ccccc23)cc1 | nm | 522

Fill in reported emission maximum for this entry: "Cc1ccc(-c2cc3ccccc3oc2=O)cc1"
408

Fill in reported emission maximum for this entry: "CN1C(=O)/C(=C/c2ccncc2)N=C1/C=C/c1ccncc1"
545

Fill in reported emission maximum for this entry: "CC1(C)[C@@H]2CC[C@]1(C)c1nc3cc(-c4cccs4)ccc3nc12"
446

Fill in reported emission maximum for this entry: "CCOC(=O)c1cc(C(=O)OCC)c2ccc(C)cc2n1"
422

Fill in reported emission maximum for this entry: "Cc1cc2c(o1)c(Br)cc1c(C)cc(=O)oc12"
439

Fill in reported emission maximum for this entry: "O=C(O)c1ccc2ccc3cccc4ccc1c2c34"
380

Fill in reported emission maximum for this entry: "N#Cc1cccc2cc[nH]c12"
382

Fill in reported emission maximum for this entry: "COc1cc(/C=C/c2cc[n+](Cc3ccc(Br)cc3)cc2)ccc1O"
564

Fill in reported emission maximum for this entry: "CN1c2cc3nc4cc(Cl)c(Cl)cc4nc3cc2N(C)C1(C)C"
497

Attribution: the Deep4Chem optical property database
